# Tested on: PKB Ser473 phosphorylation in Rat1-myr-HA-p110 beta cells
# Protocol text: Reverse protein array, PKB Ser473 phosphorylation in Rat1-myr-HA-p110 beta cells
# Format: cell-based
# Experimental setup: Rattus norvegicus, 0.5 h, 30 minutes compound incubation, read-out: p-PKB/IC50_beta
# Procedure: No. 15140-114) and 10 μg/ml Puromycine (Sigma, cat. No. P9620). The Rat1-myr-HA-p110 alpha, beta and delta cells were trypsinized and counted with a CASY TT cell counter (Schärfe System GmbH, Reutlingen Germany). The cells were diluted in fresh DMEM complete medium and 3×10^4 cells/150 μl/well seeded in 96-well TPP-tissue culture plates (TPP, cat. No. 92096). The plates were incubated at 37° C. and 5% CO2 under humidified condition for at least 20 h. […]
Readings of IC50 for the listed molecules

| Molecule | Target or test system | Units of measure | Sign qualifier | IC50 |
| --- | --- | --- | --- | --- |
| COc1nc(N2CCNCC2)ccc1-n1c(=O)n(C)c2cnc3ccc(-c4cnc(N)c(C(F)(F)F)c4)cc3c21 | PKB Ser473 phosphorylation in Rat1-myr-HA-p110 beta cells | nM | = | 20.6 |
| COc1ccc(-c2ccc3ncc4c(c3c2)n(-c2cccnc2)c(=O)n4C)cc1OC | PKB Ser473 phosphorylation in Rat1-myr-HA-p110 beta cells | nM | = | 50.3 |
| CCOc1cc(-c2ccc3ncc4c(c3c2)n(-c2cccnc2C)c(=O)n4C)cnc1COC | PKB Ser473 phosphorylation in Rat1-myr-HA-p110 beta cells | nM | = | 61 |
| COc1ccc(-n2c(=O)n(C)c3cnc4ccc(-c5cnc(CO)c(OC)c5)cc4c32)c(OC)n1 | PKB Ser473 phosphorylation in Rat1-myr-HA-p110 beta cells | nM | = | 56.7 |
| CNc1ncc(-c2ccc3ncc4c(c3c2)n(-c2ccc(N3CC(O)C3)nc2C)c(=O)n4C)cc1C(F)(F)F | PKB Ser473 phosphorylation in Rat1-myr-HA-p110 beta cells | nM | = | 21.9 |
| COc1ccc(-n2c(=O)n(C)c3cnc4ccc(-c5cnc(N)c(C(F)(F)F)c5)cc4c32)c(OC)n1 | PKB Ser473 phosphorylation in Rat1-myr-HA-p110 beta cells | nM | = | 12.8 |
| CCNc1cc(-c2ccc3ncc4c(c3c2)n(-c2ccc(N3CCCC3)nc2C)c(=O)n4C)cnc1CO | PKB Ser473 phosphorylation in Rat1-myr-HA-p110 beta cells | nM | < | 4.57 |
| CCOc1ccc(-c2ccc3ncc4c(c3c2)n(-c2ccc(N(C)C)nc2C)c(=O)n4C)cn1 | PKB Ser473 phosphorylation in Rat1-myr-HA-p110 beta cells | nM | = | 14.2 |
| COc1ccc(-c2ccc3ncc4c(c3c2)n(-c2ncccc2C)c(=O)n4C)cn1 | PKB Ser473 phosphorylation in Rat1-myr-HA-p110 beta cells | nM | = | 945 |
| Cc1nc(F)ccc1-n1c(=O)n(C)c2cnc3ccc(-c4cncc(C(C)(C)O)c4)cc3c21 | PKB Ser473 phosphorylation in Rat1-myr-HA-p110 beta cells | nM | = | 68.6 |
| COC1CCN(c2ccc(-n3c(=O)n(C)c4cnc5ccc(-c6cncc(C(C)(C)O)c6)cc5c43)c(C)n2)C1 (stereo not drawn) | PKB Ser473 phosphorylation in Rat1-myr-HA-p110 beta cells | nM | = | 36.7 |
| COCC(=O)Nc1ccc(-n2c(=O)n(C)c3cnc4ccc(-c5cncc(N)c5)cc4c32)c(C)n1 | PKB Ser473 phosphorylation in Rat1-myr-HA-p110 beta cells | nM | = | 170 |
| COCCN(C)c1ccc(-n2c(=O)n(C)c3cnc4ccc(-c5cnc6c(ccn6C)c5)cc4c32)c(C)n1 | PKB Ser473 phosphorylation in Rat1-myr-HA-p110 beta cells | nM | = | 24.4 |
| COCc1ncc(-c2ccc3ncc4c(c3c2)n(-c2ccc(N3CCC3)nc2C)c(=O)n4C)cc1OC | PKB Ser473 phosphorylation in Rat1-myr-HA-p110 beta cells | nM | = | 103 |
| CCNc1ncc(-c2ccc3ncc4c(c3c2)n(-c2ccc(N3CC[C@@H](O)C3)nc2C)c(=O)n4C)cc1COCC | PKB Ser473 phosphorylation in Rat1-myr-HA-p110 beta cells | nM | = | 27.9 |

* * *

# Test system: PKB Ser473 phosphorylation in Rat1-myr-HA-p110 beta cells
# Protocol text: Reverse protein array, PKB Ser473 phosphorylation in Rat1-myr-HA-p110 beta cells
# Format: cell-based
# Experimental setup: Rattus norvegicus, 0.5 h, 30 minutes compound incubation, read-out: p-PKB/IC50_beta
Readings of IC50 for the listed molecules
Reported property: IC50 (nM)

| Molecule | Reported property | Measured result |
| --- | --- | --- |
| COCCOc1ccc(-n2c(=O)n(C)c3cnc4ccc(-c5cnc(COC)c(OC)c5)cc4c32)c(C)n1 [Example 22.3] | IC50 | 77.6 |
| Cc1nc(N2CCC2)ccc1-n1c(=O)n(C)c2cnc3ccc(-c4cncc(C(C)(C)O)c4)cc3c21 [Example 23.3] | IC50 | 23.1 |
| COc1ccc(-c2ccc3ncc4c(c3c2)n(-c2cccnc2C)c(=O)n4C)cc1OC [Example 2.9] | IC50 | 15.7 |
| Cc1nc(N2CCCC2)ccc1-n1c(=O)n(C)c2cnc3ccc(-c4cncc(C(C)(C)O)c4)cc3c21 [Example 25.3] | IC50 | 30.6 |

* * *

Readings of HT-Perm logPe pH6.8 for the listed molecules
# Protocol text: Parallel Artificial Membrane Permeability Assay (PAMPA) at pH 6.8
# Assay type: physicochemical

| Molecule | HT-Perm logPe pH6.8 |
| --- | --- |
| CCOc1ccc(-c2ccc3ncc4c(c3c2)n(-c2ccc(N(C)CCOC)nc2C)c(=O)n4C)cn1 | −3.8 |
| CCNc1cc(-c2ccc3ncc4c(c3c2)n(-c2ccc(F)nc2C)c(=O)n4C)cnc1CO | −5.2 |
| CCNc1cc(-c2ccc3ncc4c(c3c2)n(-c2cnc(F)cc2C)c(=O)n4C)cnc1C | −3.8 |
| Cc1nc(C(F)(F)F)ccc1-n1c(=O)n(C)c2cnc3ccc(-c4cncc(C(C)(C)O)c4)cc3c21 | −4.5 |
| CCOc1cc(-c2ccc3ncc4c(c3c2)n(-c2cccnc2C)c(=O)n4C)cnc1COC | −4.3 |
| COCC(=O)Nc1ccc(-n2c(=O)n(C)c3cnc4ccc(-c5cncc(N)c5)cc4c32)c(C)n1 | −6.1 |
| CNc1ccc(-c2ccc3ncc4c(c3c2)n(-c2cnc(F)cc2C)c(=O)n4C)cn1 | −4.2 |
| CNc1cc(-c2ccc3ncc4c(c3c2)n(-c2cccnc2C)c(=O)n4C)cnc1C | −4.8 |
| Cc1ncccc1-n1c(=O)n(C)c2cnc3ccc(-c4cncc(N5CCC5)c4)cc3c21 | −4.3 |
| CNc1ncc(-c2ccc3ncc4c(c3c2)n(-c2ccc(N3CCC(O)C3)nc2C)c(=O)n4C)cn1 (stereo not drawn) | −5.1 |
| CNc1cncc(-c2ccc3ncc4c(c3c2)n(-c2cccnc2C)c(=O)n4C)c1 | −5.3 |
| COCCN(C)c1ccc(-n2c(=O)n(C)c3cnc4ccc(-c5cncc(N)c5)cc4c32)c(C)n1 | −5.1 |
| Cc1ccc(-n2c(=O)n(C)c3cnc4ccc(-c5cnc(N(C)C)nc5)cc4c32)c(C)n1 | −3.8 |
| CNc1cc(-c2ccc3ncc4c(c3c2)n(-c2ccc(F)nc2C)c(=O)n4C)cnc1CO | −5.4 |
| CNc1ncc(-c2ccc3ncc4c(c3c2)n(-c2ccc(OC)nc2Cl)c(=O)n4C)cn1 | −3.5 |
| CCNc1cc(-c2ccc3ncc4c(c3c2)n(-c2cccnc2C)c(=O)n4C)cnc1CO | −5.8 |
| CNC(=O)c1cc(-c2ccc3ncc4c(c3c2)n(-c2ccc(F)nc2C)c(=O)n4C)cnc1N | −5.9 |
| CCN(C)c1ccc(-n2c(=O)n(C)c3cnc4ccc(-c5ccc(NC)nc5)cc4c32)c(C)n1 | −4.1 |
| CCNc1cc(-c2ccc3ncc4c(c3c2)n(-c2ccc(OC)nc2C)c(=O)n4C)cnc1C | −3.7 |
| CNc1ncc(-c2ccc3ncc4c(c3c2)n(-c2ccc(N3CC[C@H](O)C3)nc2C)c(=O)n4C)cc1F | −4.8 |
| COc1ncc(-c2ccc3ncc4c(c3c2)n(-c2ccc(N3CC[C@H](O)C3)nc2C)c(=O)n4C)c(OC)n1 | −5.3 |
| CCNc1cc(-c2ccc3ncc4c(c3c2)n(-c2ccc(OCCOC)nc2C)c(=O)n4C)cnc1C | −4.1 |
| COCc1ncc(-c2ccc3ncc4c(c3c2)n(-c2ccc(N3CCC3)nc2C)c(=O)n4C)cc1OC(C)C | −3.7 |
| CNc1ncc(-c2ccc3ncc4c(c3c2)n(-c2ccc(F)nc2C)c(=O)n4C)cc1F | −3.7 |
| Cc1nc(C(C)(C)O)ccc1-n1c(=O)n(C)c2cnc3ccc(-c4cncc(OC(C)C)c4)cc3c21 | −3.8 |
| COCCN(C)c1ccc(-n2c(=O)n(C)c3cnc4ccc(-c5cnc(N(C)C)nc5)cc4c32)c(C)n1 | −3.7 |
| CCNc1cc(-c2ccc3ncc4c(c3c2)n(-c2ccc(N3CCC3)nc2C)c(=O)n4C)cnc1CO | −5.7 |
| Cc1ccc(-n2c(=O)n(C)c3cnc4ccc(-c5cncc(NC(C)C)c5)cc4c32)c(C)n1 | −4.1 |
| CNc1ncc(-c2ccc3ncc4c(c3c2)n(-c2ccc(N(C)C)nc2C)c(=O)n4C)cn1 | −3.9 |
| CNc1ncc(-c2ccc3ncc4c(c3c2)n(-c2ccc(N3CC[C@H](O)C3)nc2C)c(=O)n4C)cc1C(F)(F)F | −4.5 |
